EXPERIMENT DESCRIPTION: Itraconazole (strong CYP3A inhibitor) DDI study, plasma pharmacokinetics
Format: in vivo, human
PARTICULARS: both sexes, human, plasma, po, ripretinib 50 mg single oral dose + itraconazole 200 mg QD, fasting, healthy participants (N = 20); read-out: AUC0–t, geometric mean (CV%)
TEST READOUT: AUC(0-t) (ng·h/mL)
Your answer should be a plain number; it is taken to be in ng·h/mL.

## Input Respond only with AUC(0-t) recorded for CCn1c(=O)c(-c2cc(NC(=O)Nc3ccccc3)c(F)cc2Br)cc2cnc(NC)cc21 [Ripretinib]
## Output 8060

---

EXPERIMENT DESCRIPTION: Itraconazole (strong CYP3A inhibitor) DDI study, plasma pharmacokinetics
Format: in vivo, human
PARTICULARS: both sexes, human, plasma, po, 50 mg, ripretinib 50 mg single oral dose alone, fasting, healthy participants (itraconazole study, N = 20); read-out: Cmax, arithmetic mean (SD)
TEST READOUT: Cmax
Write your answer as a measured quantity: the number, then the unit.

## Input Provide one value: measured Cmax of "CCn1c(=O)c(-c2cc(NC(=O)Nc3ccccc3)c(F)cc2Br)cc2cnc(NC)cc21"
## Output 321 ng/mL

---

EXPERIMENT DESCRIPTION: Rifampin (strong CYP3A inducer) DDI study, plasma pharmacokinetics
Type: in vivo, human
PARTICULARS: both sexes, human, plasma, po, ripretinib 100 mg single oral dose + rifampin 600 mg QD, fasting, healthy participants (N = 21); read-out: AUC0–t, arithmetic mean (SD)
Description: All studies were phase 1, fixed‐sequence, open‐label studies in healthy volunteers. […] Participants were confined to the study center from days −1 through 22 for the collection of plasma PK samples and all study procedures. […] Safety was assessed throughout the study period and with a follow‐up phone call on day 29 or 7 days after discontinuation in the case of early withdrawal. […]
TEST READOUT: AUC(0-t) (ng·h/mL)
Enter your answer as a number in ng·h/mL; do not include the unit.

## Input Consider the molecule "CCn1c(=O)c(-c2cc(NC(=O)Nc3ccccc3)c(F)cc2Br)cc2cnc(NC)cc21" and give its recorded AUC(0-t).
## Output 2360

---

EXPERIMENT DESCRIPTION: Pantoprazole (proton pump inhibitor) DDI study, plasma pharmacokinetics
Format: in vivo, human
PARTICULARS: both sexes, human, plasma, po, 50 mg, ripretinib 50 mg single oral dose alone, fasting, healthy participants (pantoprazole study, N = 23); read-out: t1/2, arithmetic mean (SD) (converted)
TEST READOUT: half-life (h)
Number in h, nothing else.

## Input Provide measured half-life value, entry: "CCn1c(=O)c(-c2cc(NC(=O)Nc3ccccc3)c(F)cc2Br)cc2cnc(NC)cc21"
## Output 14

---

EXPERIMENT DESCRIPTION: Pantoprazole (proton pump inhibitor) DDI study, plasma pharmacokinetics
Assay type: in vivo, human
PARTICULARS: both sexes, human, plasma, po, 50 mg, ripretinib 50 mg single oral dose alone, fasting, healthy participants (pantoprazole study, N = 23); read-out: AUC0–t, arithmetic mean (SD)
TEST READOUT: AUC(0-t) (ng·h/mL)
Write down the numeric answer in ng·h/mL and omit the unit.

## Input Tell me measured AUC(0-t) for CCn1c(=O)c(-c2cc(NC(=O)Nc3ccccc3)c(F)cc2Br)cc2cnc(NC)cc21 [Ripretinib] please.
## Output 3870
